Biological target: Bacillus anthracis
Assay: Inhibition of inosine and alanine-induced germination of Bacillus anthracis Sterne spore pre-incubated for 15 mins
I'd appreciate it if you could supply pKi values for the items below.
Answers are plain numbers, as −log10 of the molar value.

Parameters: items (list). Returns: pKi for each item.
1. Nc1nc(N)c2ncn([C@@H]3O[C@H](CO)[C@@H](O)[C@H]3O)c2n1
2. OC[C@H]1O[C@@H](n2cnc3c(O)nc(O)nc32)[C@H](O)[C@@H]1O
3. CSc1ncnc2c1ncn2[C@@H]1O[C@H](CO)[C@@H](O)[C@H]1O
4. COc1nc(N)nc2c1ncn2[C@@H]1O[C@H](CO)[C@@H](O)[C@H]1O

1: 4.17; 2: 3.11; 3: 4.51; 4: 4.47

Parameters: items (list). Returns: pKi for each item.
1. Nc1nc(=S)c2ncn([C@@H]3O[C@H](CO)[C@@H](O)[C@H]3O)c2[nH]1
2. Nc1nc(Cl)c2ncn([C@@H]3O[C@H](CO)[C@@H](O)[C@H]3O)c2n1

1: 4.01; 2: 4.06
